# study_target: T1, Human CD3eg linker (human)
# T1 construct: Single chain: epsilon and gamma subunits of human CD3 joined by a 29-mer linker, Flag-tag at the C-terminus; also called recombinant human CD3
# T1 chain: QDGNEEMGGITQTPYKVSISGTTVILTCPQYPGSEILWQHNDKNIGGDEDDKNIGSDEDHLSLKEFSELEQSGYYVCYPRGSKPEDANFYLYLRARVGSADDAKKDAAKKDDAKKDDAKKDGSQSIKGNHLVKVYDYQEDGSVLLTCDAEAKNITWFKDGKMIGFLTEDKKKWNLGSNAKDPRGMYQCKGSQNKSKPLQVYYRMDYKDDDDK
# measurement_description: Biacore SPR, vs template H183/L072

{"binder": "H183/L072 VH M34Q (antibody, name in Kabat numbering, V domains shown) VH: QVQLVESGGGLVQPGRSLRLSCAASGFTFSNAWQHWVRQAPGKGLEWVAQIKDKGNAYAAYYAPSVKGRFTISRDDSKNSIYLQMNSLKTEDTAVYYCHYVHYASASTVLPAFGVDAWGQGTTVTVSS VL: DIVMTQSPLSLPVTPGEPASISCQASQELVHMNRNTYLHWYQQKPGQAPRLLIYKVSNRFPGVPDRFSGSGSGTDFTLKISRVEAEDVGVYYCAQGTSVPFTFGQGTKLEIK", "fold change of affinity [fold]": 0}
{"binder": "H183/L072 VH W33Y (antibody, name in Kabat numbering, V domains shown) VH: QVQLVESGGGLVQPGRSLRLSCAASGFTFSNAYMHWVRQAPGKGLEWVAQIKDKGNAYAAYYAPSVKGRFTISRDDSKNSIYLQMNSLKTEDTAVYYCHYVHYASASTVLPAFGVDAWGQGTTVTVSS VL: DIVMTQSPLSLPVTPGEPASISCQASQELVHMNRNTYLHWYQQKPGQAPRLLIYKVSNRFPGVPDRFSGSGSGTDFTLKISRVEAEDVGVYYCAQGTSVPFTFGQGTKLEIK", "fold change of affinity [fold]": 0.1}

Origin of measurements: patent US20210388087A1
